Where do these numbers come from? They come from ChEMBL document CHEMBL1201862.

# Test system: OVCAR-8
# Test Name: NCI tumour cell line growth inhibition, 48 h
Activity calls are given as the source filed them. No stated cut-off is given here; in the data, active = GI50 up to about 1.1 µM and inactive = higher.
Field: GI50. Provide a value for each of the molecules that follow.

Record request: GI50 value, item COC(=O)c1ccc(Nc2nc3[nH]cnc3c(=O)[nH]2)cc1
> 100 µM (inactive)

Reported GI50, molecule c1ccc(C2=NN=C3C(c4ccccc4)=Nc4ccccc4N3C2)cc1 : ____
10 µM (inactive)

Name the recorded GI50 for S=C(N/N=C/c1ccco1)NC12CC3CC(CC(C3)C1)C2 .
> 100 µM (inactive)

Suppose we examine the molecule C#CCCCCC#Cc1ccccc1C(=O)C=[N+]=[N-] ; what GI50 value has been reported?
> 100 µM (inactive)

Which GI50 reading was recorded for the molecule COc1ccc2nc3cc([N+](=O)[O-])ccc3c(NNc3ccc(Cl)cc3)c2c1 ?
21.1 µM (inactive)

# get_value(readout='GI50', item= CC(C)c1c(O[Si](C(C)C)(C(C)C)C(C)C)c2c3c(ccc4c3c1OC4(C)C)C(C)CC2 (stereo unspecified) )
> 100 µM (inactive)

* * *

# System: SK-OV-3
# Test Name: NCI tumour cell line growth inhibition, 48 h
The source made the active and inactive calls. No stated cut-off is given here; in the data, active = GI50 up to about 1.1 µM and inactive = higher.
Task for the reader: assign each of the following compounds its reported GI50.

Fill in the blank: the reported GI50 of Cc1c2cccc-2ccc2c1[nH]c1ccccc12 is ____.
3.23 µM (inactive)

What value of measured GI50 is listed for CCOc1cc2c(cc1O)/C(=N/NS(=O)(=O)c1ccc(C)cc1)C[C@@H]1[C@@H]2CC[C@]2(C)[C@@H](O)CC[C@@H]12 ?
10.5 µM (inactive)

Look up GI50 for this compound: COC(=O)C(=O)C(C#N)c1c(Cl)cccc1Cl (stereo not given)
> 100 µM (inactive)

// returns reported GI50 for input CCc1cc(O)c(Cl)c(C)c1Cl
18.3 µM (inactive)

Entry O=c1cccccc1NCCCCCCCCNc1cccccc1=O : reported GI50 = ?
> 100 µM (inactive)

Given Cc1ccc(NC(=O)OCC(COc2ccc(Cl)cc2)OC(=O)Nc2ccc(C)cc2)cc1 (stereo not given) , state its recorded GI50.
58.6 µM (inactive)

Consider the compound COC(=O)C1=C(CCCCO[Si](C)(C)C(C)(C)C)NC(=O)N2[C@H](CCOCc3ccccc3)CC[C@@H]12 and give its measured GI50.
> 100 µM (inactive)

Look at this compound and give its reported GI50. O=C(O)CCC(c1ccccc1)(c1ccccc1)c1ccccc1
31.9 µM (inactive)

// GI50 lookup, key: C[C@@H]1CC[C@H]2[C@H]1[C@H]1[C@@H](CC[C@]2(C)N=C=S)C1(C)C
49.3 µM (inactive)

Given CC(=O)N[C@@H](Cc1ccc(O)cn1)C(=O)NCc1cccc(F)c1 , state its recorded GI50.
> 100 µM (inactive)

* * *

# Tested on: RPMI-8226
# Test Name: NCI tumour cell line growth inhibition, 48 h
Calls of active or inactive are those of the source. Rule as the data show it: active = GI50 up to about 1.1 µM and inactive = higher.
Quantity Measured: GI50

Tell me the measured GI50 of COc1cccc(NC(=O)/C(Cc2nc3ccccc3nc2C)=N/NC(=O)C[n+]2ccccc2)c1 , please.
26.5 µM (inactive)

Recorded GI50 of O=C(CN1c2ccccc2Sc2ccccc21)N1CCNCC1 , please.
> 100 µM (inactive)

May I ask what GI50 has been recorded for CCOC(=O)N1C=NC23C(c4ccccc4)C(c4ccccc4)C12C(=O)N(C)C(=O)N3C (configuration not stated) ?
44.2 µM (inactive)

May I ask what GI50 has been recorded for CC1=NN(c2ccc(C)cc2)C2(C1)SCC(=O)N2c1nc2ccccc2s1 (configuration not stated) ?
17.7 µM (inactive)

Endpoint output: GI50 of CC(C(=O)NCNC(=O)c1ccccc1)C(=O)Nc1ccccc1 (configuration not stated) . Value?
> 100 µM (inactive)

Fill in: GI50 of N/C(=N\c1ccc(Cl)c(Cl)c1)c1ccccc1N is ___
15.6 µM (inactive)

Looking for the measured GI50 of C#CCCCCC#Cc1ccccc1C(=O)C=[N+]=[N-] , can you help?
16.5 µM (inactive)

Entry Clc1ccc(-c2ccc(-c3nnc(COc4ccc(OCc5nnc(-c6ccc(-c7ccc(Cl)cc7Cl)o6)o5)c(Cl)c4)o3)o2)c(Cl)c1 has what GI50?
> 100 µM (inactive)

What GI50 value was documented for this compound, COc1ccc(-c2cc(-c3cc(F)c(Cl)cc3Cl)[nH]n2)cc1OC ?
17.3 µM (inactive)

Requested read-out: GI50. Entry: CCOC(=O)/C(=C\c1ccc(N(CCC#N)CCC#N)cc1)NC(=O)c1cc([N+](=O)[O-])ccc1Cl
56.6 µM (inactive)

Please give the measured GI50 for this compound: CC[S+](C)c1ccc(-c2c3nc(c(-c4ccc([S+](C)CC)cc4)c4ccc([nH]4)c(-c4ccc([S+](C)CC)cc4)c4nc(c(-c5ccc([S+](C)CC)cc5)c5ccc2[nH]5)C=C4)C=C3)cc1.[O-][Cl+3]([O-])([O-])[O-].[O-][Cl+3]([O-])([O-])[O-].[O-][Cl+3]([O-])([O-])[O-].[O-][Cl+3]([O-])([O-])[O-] (configuration not stated)
7.78 µM (inactive)

Given the entry C=CC1(c2ccc(-c3ccccc3)cc2)OCCO1 , report its measured GI50.
> 100 µM (inactive)

I am curious: what GI50 value has been reported for O=C1/C(=C\c2cccc(Oc3ccccc3)c2)SC(c2ccccc2)N1c1cccc(Cl)c1 (configuration not stated) ?
> 100 µM (inactive)

Find the recorded GI50 belonging to O=C1C=CC(=O)c2cc(Sc3ccccc3)c(=O)ccc21 and report it.
4.46 µM (inactive)

Any idea what its GI50 is? The compound is O=C(c1ccccc1)c1c(-c2ccccc2)sc2nc3ccccc3nc12
> 100 µM (inactive)

Which GI50 reading was recorded for the compound C[C@@H](CO)C1=CC(C#C[Si](C)(C)C)N(C(=O)Oc2ccccc2)c2ccccc21 (some centres not stated) ?
24.9 µM (inactive)

Name the reported GI50 value associated with the compound C=CC[C@@]12CCC(=O)C=C1CCCC2=O
> 100 µM (inactive)
